System: HepG2 cells
Test: HepG2 cytotoxicity assay
Settings: read-out: HepG2 cytotoxicity assay IC50; dose response confirmation
Recorded pIC50, one value per entry.
Just the number, please; pIC50 means minus log10 of the concentration in mol/L.

Please review the following examples before continuing.
Cc1ccc(Cn2c(N3CCC(C(=O)NCc4ccccn4)CC3)nc3ccccc32)cc1 | 4.16
c1ccc(CCNc2ncnc3c2[nH]c2ccccc23)cc1 | 4.98
CCOC(=O)C(=O)N1c2ccc(OCC)cc2-c2c(ssc2=S)C1(C)C | 4.00

q: Would you mind telling me what pIC50 value was observed for Nc1nc(N)c2c(ccc3c2ccn3CCCC(F)(F)F)n1 ?
a: 6.43

q: Now the same for Cc1ccnc(NC(c2cccc(Cl)c2Cl)c2ccc3cccnc3c2O)c1 (stereo not shown)
a: 5.54

q: Likewise for CCN(CC)CCCNc1nccc(N(C)c2ccc(NC(=O)Nc3cc(C(F)(F)F)ccc3F)cc2)n1.O=C(O)C(F)(F)F ?
a: 5.56

q: Ok, now Cc1[nH]c(C)c(-c2ccc(Oc3ccc(Cl)cc3)cc2)c(=O)c1C
a: 5.06

q: Same read-out for CNCCN(C)C(=O)Oc1c(Br)c(C)nc(C)c1-c1ccc(Oc2ccc(OC(F)(F)F)cc2)cc1.Cl ?
a: 5.08

q: Also Cc1[nH]c(C)c(-c2ccc(Oc3ccc(F)cc3)cc2)c(=O)c1Cl ?
a: 4.25

q: Cool, now CN1c2ccc([N+](=O)[O-])cc2C(C)(C)C12C=Cc1cc(Br)cc([N+](=O)[O-])c1O2 (stereo not shown)
a: 4.54

q: Similarly, CCn1c(C)cc(C=C2SC(=Nc3ccccc3)NC2=O)c1C ?
a: 4.01

q: Another: Cc1[nH]c(C)c(-c2ccc(-c3ccc(Cl)cc3)nc2)c(=O)c1Br
a: 4.00

q: Record: COc1ccc2nc3cc(Cl)ccc3c(NCCCO)c2c1
a: 5.15

q: Okay, and COc1ccc2nc(-c3cc(-c4ccc(NC(C)=O)cc4)cnc3N)[nH]c2c1 ?
a: 4.92

q: Entry to check: COc1ccc2nccc(NC(=O)C3CCC(NCc4cnc(SC)c([N+](=O)[O-])c4)CC3)c2n1.Cl (stereo not shown)
a: 4.84

q: Likewise for CN(C)S(=O)(=O)n1ccc2c3c(N)nc(N)nc3ccc21 ?
a: 8.77

q: And what about the molecule CC(O)C(C)(CO)NCc1ccc2c3c(cccc13)-c1ccccc1-2.Cl (stereo not shown) ?
a: 5.35

q: Continue with COc1ccc2ncc(F)c(CCN3C4CCC3CC(NCc3ccc5c(c3)OCCO5)C4)c2n1.Cl (stereo not shown)
a: 4.40

q: Then what about the molecule COc1ccc2nccc([C@@H](O)CN3CCC(NC(=O)/C=C/c4c[nH]c5c(C)cccc45)CC3)c2c1 ?
a: 4.29

q: Same lookup for CCCCCCCCc1c(C)[nH]c(C)c(Cl)c1=O , please.
a: 5.32

###

Test system: P. berghei ookinete development
Conditions: 1: YES; 0: NO
test-readout: Is compound selective in assay? Pb ODA active?

Example entries and their recorded answers appear below.
Cc1[nH]c(C)c(-c2ccc(Oc3ccccc3)cc2)c(=O)c1Br | 1 (1: YES)
Cc1[nH]c(C)c(-c2ccc(OCc3cccc(C(F)(F)F)c3)nc2)c(=O)c1Br | 1 (1: YES)
Nc1nc(N)c2c(Cl)c(N3CCOCC3)ccc2n1 | 0 (0: NO)

q: # value lookup — system P. berghei ookinete development, readout Is compound selective in assay? Pb ODA active?, item Cc1[nH]c(C)c(-c2ccc(-c3ccc(C(F)F)cc3)nc2)c(=O)c1Cl
a: 1 (1: YES)

q: Query CCCN1CCN(CCCCNc2c3ccccc3nc3ccccc23)CC1.Cl next
a: 0 (0: NO)

q: And for CC(C)Cn1ccc2c3c(N)nc(N)nc3ccc21 ?
a: 0 (0: NO)

q: Proceed to COc1ccc2ncc(Cl)c(CCN3CCC(NCc4ccc5c(n4)NC(=O)CS5)CC3)c2c1.Cl
a: 1 (1: YES)

q: Also CN1CCN(c2ccc(Nc3nccc(-c4cnn5ncccc45)n3)cc2Cl)CC1 ?
a: 1 (1: YES)

q: What about this compound? CC1=CC(=O)[C@@H](O)[C@]2(C)[C@H]3[C@@]4(O)OC[C@@]35[C@@H](C[C@@H]12)OC(=O)C[C@H]5[C@@H](C)[C@H]4O
a: 1 (1: YES)

###

Test system: HepG2 cells
Experiment: HepG2 cytotoxicity assay
Conditions: read-out: HepG2 cytotoxicity assay IC50; dose response confirmation
Label key: fulfilled means IC50 under 30 µM; not fulfilled means IC50 of 30 µM or more.

CC(C)CN1CCN(c2nc(C#N)c3c(c2C(=S)NC2CCCCC2)CC(C)(C)OC3)CC1 | not fulfilled

q: Find out if reported IC50 for Cc1[nH]c(C)c(C2CCC(c3ccc(Cl)cc3)CC2)c(=O)c1Cl (centres unmarked) is less than 30 µM
a: fulfilled

q: Now consider O=C(Nc1ccc(OC2CCN(Cc3ccc(F)cc3)C2)c(Cl)c1)c1cccs1.O=C(O)C(F)(F)F (centres unmarked) and answer again.
a: fulfilled

q: What would you report for Cl.Oc1cc(-c2nc(-c3ccccc3)[nH]c2-c2ccncc2)ccc1Cl ?
a: fulfilled

q: Now give it for Cc1cccc(Nc2nc(N[C@@H]3CCCNC3)nc3cc[nH]c(=O)c23)c1.O=C(O)C(F)(F)F too.
a: fulfilled

q: Follow-up item: CCCCCCCc1c(C)[nH]c2ccccc2c1=O
a: not fulfilled

q: Would you kindly repeat that for Cc1[nH]c(C)c(-c2ccc(CCc3ccc(N)cc3)cc2)c(=O)c1Cl ?
a: not fulfilled

q: Entry COc1cc(NC2=C(c3ccccc3)C(=O)c3ccccc32)ccn1 please
a: not fulfilled

###

System: HepG2 cells
Assay: HepG2 cytotoxicity assay
Details: unified HepG2 value across the three screens
Procedure: Briefly, HepG2 cells were seeded onto compound-treated 384 well plates at a density of 2,500 cells per well in Minimal Essential Medium (MEM) plus 10% fetal bovine serum and 1% non-essential amino acids solution (NEAA). […] Cell viability was then measured in a fluorescent plate reader and percent inhibition calculated with respect to positive and negative controls.
Categorize each record by its Unified cytotox using band 1 = under 10 µM, band 2 = from 10 µM up to 60 µM, band 3 = 60 µM and over

These recorded examples may help you get a feel for the data.
Cc1[nH]c(C)c(-c2csc3ccccc23)c(=O)c1Cl | band 3
Cc1cc(C(=O)NC2CCN(CC3(c4ccccc4)CCCCC3)CC2)on1 | band 2
Nc1c2ccccc2nc2ccc(Cl)cc12 | band 2
Nc1nc(N)c2c(ccc3c2ncn3Cc2ccccc2)n1 | band 1
COc1ccc(-c2nc3c(N)nc(N)nc3nc2-c2ccccc2Cl)cc1.COc1ccc(-c2nc3nc(N)nc(N)c3nc2-c2ccccc2Cl)cc1.Cl | band 3
COc1cccc(CC(=O)N2CCC(n3c(C)nc4ccc(F)cc43)CC2)c1 | band 3
COc1ccc2nccc([C@@H](O)CN3CCC(NCc4cc5cccc6c5n(c4=O)CCC6)CC3)c2c1.O=C(O)C(=O)O | band 2
CN(Cc1cccc(F)c1)C1CCN(c2cc(NC(=O)c3ccc(F)cc3)ccn2)CC1.O=C(O)C(F)(F)F | band 1
COc1cc(F)c2ncc(Cl)c(CCN3CCC(NCc4ccc5c(c4)NC(=O)CS5)CC3)c2c1.Cl | band 2
CC(=O)Nc1ccc(Nc2c3ccccc3nc3ccccc23)cc1 | band 2

q: Exam item: assign Cl.O=c1cc(NCCCNCc2sc(Br)c(Br)c2Br)[nH]c2ccccc12 to the correct category.
a: band 2

###

Test system: HepG2 cells
Assay: HepG2 cytotoxicity assay
Conditions: value reported with the Pb ODA screen, this manuscript
test-readout: HepG2 cytoxicity (µM)
Numeric only. Scale: µM

CC(=O)c1ccc2nc[nH]c(=O)c2c1 | 1.24
C=CCC1OC(=O)c2cc(OC)cc(OC)c21 (centres unmarked) | 2.57
O=C(O)CCSSc1cccc[n+]1[O-] | 30.90
ON=C1CCc2cc(-c3cc(-c4ccc(OC5CCNCC5)cc4)oc3-c3ccncc3)ccc21 | 5.25
CC[C@H]1CN2CCc3cc(OC)c(OC)cc3[C@@H]2C[C@@H]1C[C@H]1NCCc2cc(OC)c(OC)cc21 | 1.55
COc1cc(-c2cc(-c3ccc(S(C)(=O)=O)cc3)cnc2N)ccc1O | 57.54
CCc1c(CCNCCCCCCNCCc2ccc([N+](=O)[O-])cc2)ccc(OC)c1OC.Cl | 5.13

Now consider a different compound.
q: Which HepG2 cytoxicity is reported with HepG2 cells for this entry: CCC1CN2CCc3cc(OC)c(OC)cc3C2CC1CC1NCCc2cc(OC)c(OC)cc21 (centres unmarked) ?
a: 23.99

###

Test system: P. berghei ookinete development
Conditions: primary screen at 1 μM, replicate A
test-readout: % inhibition, Replicate A (%)
Provide only the numeric value, understood in %.

q: Request the reported % inhibition, Replicate A associated with Cc1nc(C)c(-c2ccc(Oc3ccc(OC(F)(F)F)cc3)cc2)c(OC(=O)c2ccccc2)c1Cl
a: 56.36

q: Also Cc1nc(SCC(=O)N2CCCC2=O)c2c(C)c(C)sc2n1 ?
a: 50.04
